Assay conditions: in chlorobenzene, 332.4 K
Observable: solubility (mole fraction)
Please give only the number in your answer, with no unit.

Please fill in: solubility (mole fraction) reported for O=P(O)(O)c1ccccc1-c1ccccc1O = 0.047

* * *

Assay conditions: in water, 358.3 K
Observable: solubility (mole fraction)
Please give only the number in your answer, with no unit.

Please fill in: solubility (mole fraction) reported for O=P(O)(O)c1ccccc1-c1ccccc1O = 0.000984

* * *

Assay conditions: in chlorobenzene, 313.71 K
Observable: solubility (mole fraction)

Please fill in: solubility (mole fraction) reported for O=P(O)(O)c1ccccc1-c1ccccc1O = 0.0195

* * *

Assay conditions: in chlorobenzene, 325.56 K
Observable: solubility (mole fraction)
Please give only the number in your answer, with no unit.

Please fill in: solubility (mole fraction) reported for O=P(O)(O)c1ccccc1-c1ccccc1O = 0.036

* * *

Assay conditions: in water, 347.77 K
Observable: solubility (mole fraction)
Please give only the number in your answer, with no unit.

Please fill in: solubility (mole fraction) reported for O=P(O)(O)c1ccccc1-c1ccccc1O = 0.000763

* * *

Assay conditions: in water, 352.6 K
Observable: solubility (mole fraction)
Please give only the number in your answer, with no unit.

Please fill in: solubility (mole fraction) reported for O=P(O)(O)c1ccccc1-c1ccccc1O = 0.000859

* * *

Assay conditions: in chlorobenzene, 355.3 K
Observable: solubility (mole fraction)
Please give only the number in your answer, with no unit.

Please fill in: solubility (mole fraction) reported for O=P(O)(O)c1ccccc1-c1ccccc1O = 0.131

* * *

Assay conditions: in chlorobenzene, 308.86 K
Observable: solubility (mole fraction)
Please give only the number in your answer, with no unit.

Please fill in: solubility (mole fraction) reported for O=P(O)(O)c1ccccc1-c1ccccc1O = 0.0156

* * *

Assay conditions: in chlorobenzene, 346.96 K
Observable: solubility (mole fraction)
Please give only the number in your answer, with no unit.

Please fill in: solubility (mole fraction) reported for O=P(O)(O)c1ccccc1-c1ccccc1O = 0.0853

* * *

Assay conditions: in chlorobenzene, 338.93 K
Observable: solubility (mole fraction)
Please give only the number in your answer, with no unit.

Please fill in: solubility (mole fraction) reported for O=P(O)(O)c1ccccc1-c1ccccc1O = 0.0597

* * *

Assay conditions: in water, 362.37 K
Observable: solubility (mole fraction)

Please fill in: solubility (mole fraction) reported for O=P(O)(O)c1ccccc1-c1ccccc1O = 0.00115

* * *

Assay conditions: in chlorobenzene, 349.4 K
Observable: solubility (mole fraction)
Please give only the number in your answer, with no unit.

Please fill in: solubility (mole fraction) reported for O=P(O)(O)c1ccccc1-c1ccccc1O = 0.0974

* * *

Assay conditions: in water, 337.7 K
Observable: solubility (mole fraction)
Please give only the number in your answer, with no unit.

Please fill in: solubility (mole fraction) reported for O=P(O)(O)c1ccccc1-c1ccccc1O = 0.000579

* * *

Assay conditions: in chlorobenzene, 300.97 K
Observable: solubility (mole fraction)
Please give only the number in your answer, with no unit.

Please fill in: solubility (mole fraction) reported for O=P(O)(O)c1ccccc1-c1ccccc1O = 0.013

* * *

Assay conditions: in water, 320.97 K
Observable: solubility (mole fraction)
Please give only the number in your answer, with no unit.

Please fill in: solubility (mole fraction) reported for O=P(O)(O)c1ccccc1-c1ccccc1O = 0.000396
